System: A498
Test Summary: NCI tumour cell line growth inhibition, 48 h
Active and inactive are the calls of the source. Rule as the data show it: active = GI50 up to about 1.1 µM and inactive = higher.
Valid outcomes are listed here; reply with one: yes (active), no (inactive)

**Query** Lab log entry: `N#Cc1c(Cl)cc(C#N)n2c1nc1ccccc12` — outcome as called in the assay?
**Result** no

**Query** Lab log entry: `COc1cc2c(cc1OCc1ccccc1)NC(=O)[C@@H]1C[C@@H](O)CN1C2=O` — outcome as called in the assay?
**Result** no

**Query** Lab log entry: `COc1ccc2[nH]c3c(c2c1)[C@H](C)C[C@@H]1C(=O)N(c2ccccc2)C(=O)[C@H]31` — outcome as called in the assay?
**Result** no

**Query** Lab log entry: `N#Cc1c(O)n(-c2ccccc2)c(=O)c2c(N)n[nH]c12` — outcome as called in the assay?
**Result** no

**Query** Lab log entry: `C#C[C@]1(O)CC[C@H]2[C@@H]3CCC4=C/C(=N/CCOC(=O)c5cccc6c(=O)c7ccccc7[nH]c56)CC[C@@H]4[C@H]3CC[C@@]21C` — outcome as called in the assay?
**Result** no

**Query** Lab log entry: `O=C(O)c1ccc(CNCc2ccccc2)cc1` — outcome as called in the assay?
**Result** no

**Query** Lab log entry: `CCN(CC)CCNc1ccc2ncn3c4c(OC)ccc(O)c4c(=O)c1c23` — outcome as called in the assay?
**Result** no

**Query** Lab log entry: `C/C(=N\Nc1nc2ccccc2o1)c1ccncn1` — outcome as called in the assay?
**Result** yes

**Query** Lab log entry: `O=C1C=CC2(C=C1)C[C@H](NC(=O)OCc1ccccc1)C(=O)O2` — outcome as called in the assay?
**Result** no

**Query** Lab log entry: `CC(C)(C)OC(=O)N(O)CCCn1cnc2c(N)ncnc21` — outcome as called in the assay?
**Result** no

**Query** Lab log entry: `CC(C)(C)OC(=O)Nc1cc(-c2ccccc2)co1` — outcome as called in the assay?
**Result** no

**Query** Lab log entry: `O=C(O)c1nn[nH]c1S` — outcome as called in the assay?
**Result** no

**Query** Lab log entry: C1COCCOP2(N3CC3)=NP(N3CC3)(=NP(N3CC3)(N3CC3)=N2)OCCOCCO1 (stereo not given) — outcome as called in the assay?
**Result** no

**Query** Lab log entry: [O-][S+]1c2ccccc2N=C(c2cccc3ccccc23)CC1c1cccc2ccccc12 (stereo not given) — outcome as called in the assay?
**Result** no

**Query** Lab log entry: `NCCOCn1cc(Cc2cccc(OCc3ccccc3)c2)c(=O)[nH]c1=O` — outcome as called in the assay?
**Result** no

**Query** Lab log entry: Nc1nc(N)c2ncn(CC3CCC(CO)C3)c2n1 (stereo not given) — outcome as called in the assay?
**Result** no

**Query** Lab log entry: Cc1ccc(NC(=O)C(=O)C(C#N)c2ccccc2C)cc1C (stereo not given) — outcome as called in the assay?
**Result** no

**Query** Lab log entry: `NCCCN(CCCCN(CCCN)CCCc1ccccc1)CCCc1ccccc1` — outcome as called in the assay?
**Result** no

**Query** Lab log entry: CC1OC(c2ccc3c(c2O)C(=O)C2=C(C3=O)C3(O)C(=O)CC(C)(O)CC3(O)C=C2)CC(O)C1O (stereo not given) — outcome as called in the assay?
**Result** no

**Query** Lab log entry: O=C1[C@H]2ON(c3ccccc3)C(c3ccc(Cl)cc3)[C@H]2C(=O)N1c1ccc(Cc2ccc(N3C(=O)[C@@H]4ON(c5ccccc5)C(c5ccc(Cl)cc5)[C@@H]4C3=O)cc2)cc1 (stereo not given in full) — outcome as called in the assay?
**Result** no
